Tested on: 276233-004-R-J1-PDC complex spheroid viability;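 note: spheroids exposed to drugs for seven days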
Test: Anticancer human tumor 276233-004-R-J1-PDC patient-derived colon adenocarcinoma cell line growth inhibition [GQUAD]
Conditions: curve of first compound; second compound 1 µM
pIC50: −log10 of the molar value.
Recorded pIC50 for the following compounds
Assay metric: pIC50

Compound	Assay metric	Cmp	Measured number
Cc1[nH]c2ccccc2c1CCNCc1ccc(/C=C/C(=O)NO)cc1 + Cc1[nH]c2ccc(F)cc2c1-c1nc2c3cccnc3c3ncccc3c2[nH]1	pIC50	=	7.41
COc1cccc2c1C(=O)c1c(O)c3c(c(O)c1C2=O)CC(O)(C(=O)CO)CC3OC1CC(N)C(O)C(C)O1 (stereo not given) + Cc1[nH]c2ccc(F)cc2c1-c1nc2c3cccnc3c3ncccc3c2[nH]1	pIC50	=	5.44
COc1cc(C2c3cc4c(cc3C(OC3OC5COC(C)OC5C(O)C3O)C3COC(=O)C23)OCO4)cc(OC)c1O (stereo not given) + Cc1cnc(CNC(=O)c2c(=O)c3ccc(N4CCCN(C)CC4)nc3n3c2sc2ccccc23)cn1	pIC50	<	5.00
COc1ncnc(C2CC2)c1-c1ncc2cnn(Cc3ccc(-c4nc(C(F)(F)F)cn4C(C)C)cc3)c2n1 + CN(C)c1ccc(Nc2c3ccc(NC(=O)CCN4CCCC4)cc3nc3cc(NC(=O)CCN4CCCC4)ccc23)cc1	pIC50	=	7.50
CC(C)(O)C1CCC(Nc2ccc3ncc(-c4cccc(C(F)(F)F)c4)n3n2)CC1 (stereo not given) + Cc1[nH]c2ccc(F)cc2c1-c1nc2c3cccnc3c3ncccc3c2[nH]1	pIC50	>	7.50
